Recorded IC50 values for a group of molecules are listed next.
- study.target: partially purified β-lactamase PCI (Staphylococcus aureus)
- Construct: partially purified β-lactamases from Escherichia coli (either TEM or RPI), Klebsiella aerogenes (K1) and Staphylococcus aureus (PCI); endogenous in cells; host or cells: Staphylococcus aureus (PCI), enzyme partially purified from the producing bacterium
- Sequence (P00807 25-281): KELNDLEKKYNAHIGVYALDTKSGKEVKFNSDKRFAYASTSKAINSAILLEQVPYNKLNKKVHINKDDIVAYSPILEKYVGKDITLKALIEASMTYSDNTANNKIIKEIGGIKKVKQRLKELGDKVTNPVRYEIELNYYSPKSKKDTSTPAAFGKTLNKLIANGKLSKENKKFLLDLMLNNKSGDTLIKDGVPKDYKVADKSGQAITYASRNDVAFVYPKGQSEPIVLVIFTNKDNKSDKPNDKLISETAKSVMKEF
- assay.protocol: β-Lactamase inhibition (hydrolysis of ampicillin)
- Format: biochemical
- run.parameters: ampicillin sodium 500 µg/ml, 37°C, pH7, read-out: μg/ml of compound giving 50% inhibition of hydrolysis of ampicillin (converted)
Expressed in µM, but write only the number.

Below, each entry is followed by its recorded IC50 result.
CC(=O)c1cnnn1C/C=C1\O[C@@H]2CC(=O)N2[C@H]1C(=O)O 2.4
CCOC(=O)c1cn(C/C=C2\O[C@@H]3CC(=O)N3[C@H]2C(=O)O)nn1 0.419
NC(=O)c1cn(C/C=C2\O[C@@H]3CC(=O)N3[C@H]2C(=O)O)nn1 1.23

Here is another molecule to look at.
Lab note: molecule "CNC(=O)c1cn(C/C=C2\O[C@@H]3CC(=O)N3[C@H]2C(=O)O)nn1" tested on partially purified β-lactamase PCI (Staphylococcus aureus); recorded IC50 was 2.18
